# TARGET SYSTEM: T1, canine PD-1 ECD-6His
# T1 chain: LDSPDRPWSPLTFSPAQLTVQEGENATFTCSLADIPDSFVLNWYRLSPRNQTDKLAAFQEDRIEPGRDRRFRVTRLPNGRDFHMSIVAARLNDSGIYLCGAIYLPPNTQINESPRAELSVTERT
# ASSAY: SPR; monovalent binding
QUANTITY KIND: pKd
Note on units: pKd is unitless, being -log10 of a concentration expressed in mol/L.

binder="PMX151 (antibody, V domains shown) VH: EVQLVESGGDLVKSGGSLRLSCVASGFTFNTYSMNWVRQAPGKGLQWVARIKSSGSSTTYADAVKGRFTVSRDIAKNTLFLQMNSLRAEDTALYYCASEPGARYEIYFVESFFDYWGQGTLVTVSS VL: SYVLTQLPSKSVTLKQPAHITCGGDNIGSKSVHWYQQKLGQAPVLIIYYDSSRPTGIPERFSGANSGNTATLTISGALAEDEADYYCQVWDSSAQAWIFGEGTQLTVL" readout_number=8.77

// next entry
INPUT: What does the record list as pKd for PMX125 (antibody, V domains shown) VH: EVQLVESGGDLVKPGGSLRLSCVASGFSFSRYHMSWVRQAPGKGLQWVAYIISGGITTSYADAVKGRFTISRDNAKNTLFLQMNSLRAEDTAVYYCATYGSYFFDKWGQGTLVTVSS VL: DIVMTQTPLSLSVSPGETASISCKASQSLLHSDGKSYLNWFRQKPGQSPQRLIYRVSNRDPGVPDRFSGSGSGTDFTLRISRVEADDTGLYYCGQVIQDPTFGAGTKVELK ?
OUTPUT: 8.11
